test: solvent given as SMILES; details: in CCO
# reported solvation free energy, 298 K; entries follow
Write down the numeric answer in kcal/mol and omit the unit.

Before answering, review these 5 worked examples.
CCCCCCCCCCCCCCCCCCC
-10.8
O=C(O)CCC(=O)O
-12.6
CCCCCCCCCCCCCCCCCCCC
-11.4
O=C(O)c1ccc(Cl)c([N+](=O)[O-])c1
-13.5
CCCCCCC
-3.7

Sample O=C(O)c1cc([N+](=O)[O-])ccc1Cl ; solvation free energy, 298 K observed: -13.2

Form: molecule = C=C(Cl)Cl ; solvation free energy, 298 K = -3.25

###

experiment: solvent given as SMILES; details: in C=CCCCCCC
# solvation free energy, 298 K >= -5 kcal/mol gives YES, anything below gives NO

CCCCCCCCC
NO
CCCCCCC
YES
CCCCC
YES

Does the compound CC(C)CCC(C)C have recorded solvation free energy, 298 K that is -5 kcal/mol or more?
YES

Assess whether reported solvation free energy, 298 K for CCCCCC sits at -5 kcal/mol or higher.
YES

Entry CCCCCCCC : is its solvation free energy, 298 K no less than -5 kcal/mol?
NO
